Origin of measurements: patent US20120178701A1

A collection of binders and their measured Ki
molecular target: T1, human recombinant melanocortin-4 receptor (human, UniProt P32245 1-332); experiment: competitive inhibition of [I125]-NDP-α-MSH, hMC4-R HEK-293 membranes
T1 construct: whole, on cells; cAMP assays used the whole cells; also called hMC4-R; MC4-R
T1 sequence (P32245 whole entry): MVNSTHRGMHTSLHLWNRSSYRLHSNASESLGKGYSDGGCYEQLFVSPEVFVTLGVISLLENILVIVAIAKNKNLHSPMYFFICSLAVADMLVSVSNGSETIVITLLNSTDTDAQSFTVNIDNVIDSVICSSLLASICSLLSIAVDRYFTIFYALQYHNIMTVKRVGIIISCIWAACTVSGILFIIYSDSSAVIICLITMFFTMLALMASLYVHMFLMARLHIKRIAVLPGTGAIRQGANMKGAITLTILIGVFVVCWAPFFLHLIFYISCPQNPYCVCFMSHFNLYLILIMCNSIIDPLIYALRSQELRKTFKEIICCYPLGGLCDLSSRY
Bridge positions count the residues as written; N and C are the ends. Square brackets hold non-standard residues; d marks the D form. Phe(3-CONH2) = NC(=O)c1cccc(C[C@H](N)C(=O)O)c1; Cit = NC(=O)NCCC[C@H](N)C(=O)O
Please don't drop the unit; write it after the number.

Ac-RD[Pro(Bn)][dF]RWK-OH (lactam 2-7, also called peptide No. 55) [Ac-Arg-cyclo(Asp-Pro(Bn)-D-Phe-Arg-Trp-Lys)-OH]
12 nM

# Ki (binder: Ac-RDN[dF]RWK-OH (lactam 2-7, also called peptide No. 56) [Ac-Arg-cyclo(Asp-Asn-D-Phe-Arg-Trp-Lys)-OH] ) is 100 nM

# Ki (binder: Ac-RDK[dF][Cit]WK-NH2 (lactam 2-7, also called peptide No. 116) [Ac-Arg-cyclo(Asp-Lys-D-Phe-Cit-Trp-Lys)-NH2] ) is 873 nM

# Ki (binder: Ac-RD[Phe(3-CONH2)][dF]RWK-NH2 (lactam 2-7, also called peptide No. 49) [Ac-Arg-cyclo(Asp-Phe-(3-(C(═O)-NH2))-D-Phe-Arg-Trp-Lys)-NH2] ) is 15 nM

# Ki (binder: RKNFRXD (HELM PEPTIDE1{[ac].R.K.N.[dF].R.[O=C([C@H](Cc1ccc2ccccc2c1)N[*:1])[*:2]].D.[am]}$PEPTIDE1,PEPTIDE1,3:R3-8:R3$$$V2.0; SMILES CC(=O)N[C@@H](CCCNC(=N)N)C(=O)N[C@H]1CCCCNC(=O)C[C@@H](C(N)=O)NC(=O)[C@H](Cc2ccc3ccccc3c2)NC(=O)[C@H](CCCNC(=N)N)NC(=O)[C@@H](Cc2ccccc2)NC(=O)[C@H](CC(N)=O)NC1=O, also called peptide No. 162) [Ac-Arg-cyclo(Lys-Asn-D-Phe-Arg-Nal 2-Asp)-NH2] ) is 5 nM
